# TARGET_SYSTEM: T1, monovalent human TrkA extracellular region (human, UniProt P04629 33-423)
# T1 construct: also called recombinant monovalent human TrkA extracellular domain
# T1 sequence (P04629 33-423): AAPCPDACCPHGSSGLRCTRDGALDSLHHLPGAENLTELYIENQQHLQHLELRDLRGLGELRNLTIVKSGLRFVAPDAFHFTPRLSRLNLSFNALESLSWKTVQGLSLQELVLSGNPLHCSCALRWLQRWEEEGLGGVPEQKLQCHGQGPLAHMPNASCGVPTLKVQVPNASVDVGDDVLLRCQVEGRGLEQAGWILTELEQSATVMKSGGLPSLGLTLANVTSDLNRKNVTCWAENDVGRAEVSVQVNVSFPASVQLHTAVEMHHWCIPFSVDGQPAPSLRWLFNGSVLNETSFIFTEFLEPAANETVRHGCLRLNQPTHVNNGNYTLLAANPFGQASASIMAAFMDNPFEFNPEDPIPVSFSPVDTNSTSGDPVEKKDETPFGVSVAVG
# ASSAY_DETAILS: SPR (BIAcore 2000), antibody captured via Fc, monovalent TrkA extracellular region as analyte
Each record here notes measured Kd.

| BINDER | Kd, nM |
| --- | --- |
| BXhVH5VL3 (antibody, human IgG1, kappa, V domains shown) VH: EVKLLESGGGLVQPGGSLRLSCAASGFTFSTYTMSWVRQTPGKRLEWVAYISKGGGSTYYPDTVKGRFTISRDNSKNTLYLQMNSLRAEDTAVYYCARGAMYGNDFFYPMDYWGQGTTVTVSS VL: QIVLTQSPATLSLSPGERATLSCSASSSVSYMHWYQQKPGQSPRLLIYTTSNLASGIPSRFSGSGSGTFYTLTISSLEPEDFAVYYCHQWSSYPWTFGGGTKLEIKR | 63 |
| GBR VH3(V37A)VL1 (antibody, human IgG1, kappa, V domains shown, IGHG1, kappa) VH: EVQLLESGGGLVQPGGSLRLSCAASGFTFSTYTMSWARQTPGKRLEWVAYISKGGGSTYYPDTVKGRFTISRDNSKNTLYLQMNSLRAEDTAVYYCAKGAMYGNDFFYPMDYWGQGTTVTVSS VL: EIVLTQSPATLSLSPGERATLSCSASSSVSYMHWYQQKPGQAPRLLIYTTSNLASGIPARFSGSGSGTDFTLTISSLEPEDFAVYYCHQWSSYPWTFGQGTKLEIKR | 123 |
| GBR VH5(V37A)VL3 (antibody, human IgG1, kappa, V domains shown, IGHG1, kappa) VH: EVKLLESGGGLVQPGGSLRLSCAASGFTFSTYTMSWARQTPGKRLEWVAYISKGGGSTYYPDTVKGRFTISRDNSKNTLYLQMNSLRAEDTAVYYCARGAMYGNDFFYPMDYWGQGTTVTVSS VL: QIVLTQSPATLSLSPGERATLSCSASSSVSYMHWYQQKPGQSPRLLIYTTSNLASGIPSRFSGSGSGTFYTLTISSLEPEDFAVYYCHQWSSYPWTFGGGTKLEIKR | 28 |
| BXhVH1VL1 (antibody, human IgG1, kappa, V domains shown, IGHG1, kappa) VH: EVQLLESGGGLVQPGGSLRLSCAASGFTFSTYTMSWVRQAPGKGLEWVSYISKGGGSTYYPDTVKGRFTISRDNSKNTLYLQMNSLRAEDTAVYYCAKGAMYGNDFFYPMDYWGQGTTVTVSS VL: EIVLTQSPATLSLSPGERATLSCSASSSVSYMHWYQQKPGQAPRLLIYTTSNLASGIPARFSGSGSGTDFTLTISSLEPEDFAVYYCHQWSSYPWTFGQGTKLEIKR | 426 |
| GBR VH3(V37A)VL3 (antibody, human IgG1, kappa, V domains shown, IGHG1, kappa) VH: EVQLLESGGGLVQPGGSLRLSCAASGFTFSTYTMSWARQTPGKRLEWVAYISKGGGSTYYPDTVKGRFTISRDNSKNTLYLQMNSLRAEDTAVYYCAKGAMYGNDFFYPMDYWGQGTTVTVSS VL: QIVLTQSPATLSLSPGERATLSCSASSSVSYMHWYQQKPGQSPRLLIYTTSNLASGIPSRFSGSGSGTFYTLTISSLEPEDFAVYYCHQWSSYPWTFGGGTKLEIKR | 95 |
